Overview of reported growth across a group of compounds:
- Test system: 786-0 renal
- procedure summary: NCI-60 one-dose screen, 48 h (100 = growth as untreated, 0 = no growth, -100 = all killed)
- applied conditions: 10 µM unless noted
- Description: Cells are grown in 96 well plates and exposed to the test compound for 48 hours. Compounds are tested at a single concentration, which is 10^-5 M for most compounds. The reported endpoint is percent growth (GI% or GIPRCNT), where numbers from 0 - 100% represent growth inhibition, and numbers from -100% - 0 represent cell death. For example, a value of 40 represents 60% growth inhibition. A value of 0 means no net growth occurred over the course of the experiment. […]
About 83,000 compounds went through this panel and 20% of them were active in at least one assay; those are over-represented in the sample as a whole.
Please respond with the number in % and leave the unit unwritten.

Please review the following examples before continuing.
compound: CC12CCC(/C(=C/NNc3ccc([N+](=O)[O-])cc3[N+](=O)[O-])C1=O)C2(C)C (stereo not given)
tested system: 786-0 renal
units: %
growth: 96.4
--
compound: COc1ccc(C(c2cc(OC)c(OC)c(OC)c2)N2CCCC2)cc1 (stereo not given)
tested system: 786-0 renal
units: %
growth: 93.4
--
compound: O[C@@H](c1cc(C(F)(F)F)nc2c(C(F)(F)F)cccc12)[C@H]1CCCCN1
tested system: 786-0 renal
units: %
growth: 46.3
--
compound: COc1ccc(/C=C/C(=O)c2cc3c(N)c(C(=O)Nc4ccccc4C)sc3nc2C)cc1
tested system: 786-0 renal
units: %
growth: 21.3
--
compound: CC(=O)N/C(=C1/OC(C(O)C(O)C(O)CO)CN1C)[P+](c1ccccc1)(c1ccccc1)c1ccccc1 (stereo not given)
tested system: 786-0 renal
units: %
growth: 102
--
compound: O=C(N/N=C/c1ccc([N+](=O)[O-])cc1)c1ccc2nc(-c3ccc(Cl)cc3)[nH]c2c1
tested system: 786-0 renal
units: %
growth: 49
--
compound: COc1cc(C2Cc3ncccc3-c3[nH]c(=O)c4cccnc4c32)cc(OC)c1OC (stereo not given)
tested system: 786-0 renal
units: %
growth: 33
--
compound: Cc1ncc(C(=O)Nc2ccc(CN3CCN(C)CC3)c(C(F)(F)F)c2)cc1C#Cc1cnc(N)c2cnccc12
tested system: 786-0 renal
units: %
growth: 14
--
compound: Cc1cccc(-n2c(C)nc3ccc(N4CCCNC4=O)cc3c2=O)c1
tested system: 786-0 renal
units: %
growth: 102
--
compound: CC1COCC(C)N1C1=C(Cl)C(=O)c2ccccc2C1=O (stereo not given)
tested system: 786-0 renal
units: %
growth: 102

# value of growth, 786-0 renal, item O=C(O)CCCn1c(SCc2c(Cl)cccc2Cl)nc2ccsc2c1=O = 23.9

Form: item CCOC(=O)/C=C/c1c(C)[nH]c(=O)[nH]c1=O ; test system 786-0 renal; growth: 114

Test item CN1CCN(Cc2ccc(NC(=O)c3cncc(C#Cc4cnn5ccccc45)c3)cc2C(F)(F)F)CC1 ; 786-0 renal; reported growth was 4.29

Bench note, 786-0 renal: COc1ccc(Nc2ncccc2NC(=O)c2cn(Cc3cccc(Oc4ccccc4)c3)nn2)cc1OC , growth reads 90.5
